Data origin: patent US20250197451A1

molecular target: EZH2 protein (Homo sapiens, UniProt Q15910); experiment: KDM2B polypeptide microarray immune-hybridization with biotin-labelled EZH2 protein; assay type: binding; conditions: biotin-labelled EZH2 1 μg/ml; highest optical density set to 100%; some points noise/spike
Sequence (Q15910 whole entry, species assumed): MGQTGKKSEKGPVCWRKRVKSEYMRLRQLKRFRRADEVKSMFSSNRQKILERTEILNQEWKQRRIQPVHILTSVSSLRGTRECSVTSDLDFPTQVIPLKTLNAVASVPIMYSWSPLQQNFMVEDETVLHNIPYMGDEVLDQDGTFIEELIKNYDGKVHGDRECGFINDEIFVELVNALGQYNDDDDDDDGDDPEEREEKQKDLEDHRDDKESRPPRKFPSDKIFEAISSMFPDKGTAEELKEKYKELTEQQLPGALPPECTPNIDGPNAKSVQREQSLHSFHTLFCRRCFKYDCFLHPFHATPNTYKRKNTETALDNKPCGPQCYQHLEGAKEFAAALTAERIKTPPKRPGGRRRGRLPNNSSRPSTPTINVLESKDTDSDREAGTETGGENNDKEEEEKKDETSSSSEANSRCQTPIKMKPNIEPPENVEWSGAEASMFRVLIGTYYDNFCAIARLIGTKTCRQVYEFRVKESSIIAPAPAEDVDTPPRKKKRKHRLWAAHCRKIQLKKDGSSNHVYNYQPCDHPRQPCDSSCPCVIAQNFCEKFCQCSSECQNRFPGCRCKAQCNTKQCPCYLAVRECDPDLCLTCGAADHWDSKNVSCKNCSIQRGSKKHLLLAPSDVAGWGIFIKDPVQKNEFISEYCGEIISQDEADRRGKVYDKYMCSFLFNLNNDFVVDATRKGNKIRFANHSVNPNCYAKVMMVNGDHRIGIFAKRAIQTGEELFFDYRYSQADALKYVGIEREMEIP
Excerpt: […]
Would you mind telling me the reported Intensity (%) (gray intensity of colored points on the KDM2B polypeptide microarray) of each entry?
Numbers only, in %.

• T E I N L S D C N K V T D Q C (TEINLSDCNKVTDQC; synthesized KDM2B peptide) [compound 255] = 100
• V L E R Y V Y C V T Q R S H L (VLERYVYCVTQRSHL; synthesized KDM2B peptide) [compound 74] = 0.25
• Q P K F R Y P F Y Y E M C W Y (QPKFRYPFYYEMCWY; synthesized KDM2B peptide) [compound 71] = 0.57

Then this substance:
# Intensity (%) (gray intensity of colored points on the KDM2B polypeptide microarray) lookup, item T R D S L T E I N L S D C N K (TRDSLTEINLSDCNK; synthesized KDM2B peptide) [compound 254]
100

====

Would you mind telling me the reported Intensity (%) (gray intensity of colored points on the KDM2B polypeptide microarray) of each entry?
molecular target: EZH2 protein (Homo sapiens, UniProt Q15910); experiment: KDM2B polypeptide microarray immune-hybridization with biotin-labelled EZH2 protein; type: binding; conditions: biotin-labelled EZH2 1 μg/ml; highest optical density set to 100%; some points noise/spike
One number for each entry, in %.

Lab note: each substance below needs its Intensity (%) (gray intensity of colored points on the KDM2B polypeptide microarray) filled in.
1. L A V D Y P K T P T G S P A T (LAVDYPKTPTGSPAT; synthesized KDM2B peptide) [compound 98]
2. C I M R Q C I A P V L P H T A (CIMRQCIAPVLPHTA; synthesized KDM2B peptide) [compound 130]
3. G K Q S D I F L G D R V E R C (GKQSDIFLGDRVERC; synthesized KDM2B peptide) [compound 57]
4. A V G T T T R D S L T E I N L (AVGTTTRDSLTEINL; synthesized KDM2B peptide) [compound 253]
5. I Y E I E D R T R V Q P K F R (IYEIEDRTRVQPKFR; synthesized KDM2B peptide) [compound 69]

0.77
30.8
39.95
70.41
0.15
